tested on: CHO cell line; settings: Chinese hamster
Would you please tag the item 1.0 when its NC2 (non-cytotoxic concentration) is 30 µg/mL or above, and 0.0 when it is below?

molecule	groupLabel
O=C(CCc1ccc(O)cc1)c1c(O)cc(O)cc1O[C@@H]1O[C@H](CO)[C@@H](O)[C@H](O)[C@H]1O	1.0
O=C(/C=C/c1ccc(O)c(O)c1)O[C@@H]1C[C@](O)(C(=O)O)C[C@@H](O)[C@H]1O	1.0
C[C@@H]1O[C@@H](OC[C@H]2O[C@@H](Oc3c(-c4ccc(O)c(O)c4)oc4cc(O)cc(O)c4c3=O)[C@H](O)[C@@H](O)[C@@H]2O)[C@H](O)[C@H](O)[C@H]1O	1.0
O=c1oc2c(O)c(O)cc3c(=O)oc4c(O)c(O)cc1c4c23	0.0

Ask: Decide: is the reported value of NC2 (non-cytotoxic concentration) for O=C(O)c1cc(O)c(O)c(O)c1 [Gallic acid, reference compound] equal to or greater than 30 µg/mL?
Reply: 0.0

----------
system: CHO cell line; details: Chinese hamster
Some molecules, each annotated with its measured NC1 (non-cytotoxic concentration).
The number alone won't do; follow it with the unit.

molecule	observationType	dataValue
O=C(/C=C/c1ccc(O)c(O)c1)O[C@@H]1C[C@](O)(C(=O)O)C[C@@H](O)[C@H]1O	NC1 (non-cytotoxic concentration)	100 µg/mL
C[C@@H]1O[C@@H](OC[C@H]2O[C@@H](Oc3c(-c4ccc(O)c(O)c4)oc4cc(O)cc(O)c4c3=O)[C@H](O)[C@@H](O)[C@@H]2O)[C@H](O)[C@H](O)[C@H]1O	NC1 (non-cytotoxic concentration)	70 µg/mL
O=C(CCc1ccc(O)cc1)c1c(O)cc(O)cc1O[C@@H]1O[C@H](CO)[C@@H](O)[C@H](O)[C@H]1O	NC1 (non-cytotoxic concentration)	75 µg/mL
O=c1oc2c(O)c(O)cc3c(=O)oc4c(O)c(O)cc1c4c23	NC1 (non-cytotoxic concentration)	30 µg/mL
O=C(O)c1cc(O)c(O)c(O)c1 [Gallic acid, reference compound]	NC1 (non-cytotoxic concentration)	25 µg/mL

Ask: Look at this molecule and give its reported NC1 (non-cytotoxic concentration). C[C@@H]1O[C@@H](Oc2c(-c3ccc(O)c(O)c3)oc3cc(O)cc(O)c3c2=O)[C@H](O)[C@H](O)[C@H]1O [Quercetrin, reference compound]
Reply: 60 µg/mL

----------
test: in vitro; details: Chinese hamster
Some compounds, each annotated with its measured viability.
Hi! Could you send only the number? It should be in %, unit omitted.

Ask: Look at this compound and give its reported viability. C[C@@H]1O[C@@H](OC[C@H]2O[C@@H](Oc3c(-c4ccc(O)c(O)c4)oc4cc(O)cc(O)c4c3=O)[C@H](O)[C@@H](O)[C@@H]2O)[C@H](O)[C@H](O)[C@H]1O
Reply: 92.4

Ask: Look at this compound and give its reported viability. O=C(/C=C/c1ccc(O)c(O)c1)O[C@@H]1C[C@](O)(C(=O)O)C[C@@H](O)[C@H]1O
Reply: 90.5

----------
system: CHO cell line; conditions: Chinese hamster
Some compounds, each annotated with its measured viability.
Hi! Could you send only the number? It should be in %, unit omitted.

Record excerpt, results attached:
compound	measurementTarget	observationType	dataValue
O=C(O)c1cc(O)c(O)c(O)c1 [Gallic acid, reference compound]	CHO cell line	viability	97.9
O=C(/C=C/c1ccc(O)c(O)c1)O[C@@H]1C[C@](O)(C(=O)O)C[C@@H](O)[C@H]1O [Chlorogenic acid]	CHO cell line	viability	97.2
O=c1oc2c(O)c(O)cc3c(=O)oc4c(O)c(O)cc1c4c23 [Ellagic acid]	CHO cell line	viability	97.5
C[C@@H]1O[C@@H](OC[C@H]2O[C@@H](Oc3c(-c4ccc(O)c(O)c4)oc4cc(O)cc(O)c4c3=O)[C@H](O)[C@@H](O)[C@@H]2O)[C@H](O)[C@H](O)[C@H]1O [Rutin]	CHO cell line	viability	97.6

Ask: Look at this compound and give its reported viability. C[C@@H]1O[C@@H](Oc2c(-c3ccc(O)c(O)c3)oc3cc(O)cc(O)c3c2=O)[C@H](O)[C@H](O)[C@H]1O [Quercetrin, reference compound]
Reply: 96.3

Ask: Look at this compound and give its reported viability. O=C(CCc1ccc(O)cc1)c1c(O)cc(O)cc1O[C@@H]1O[C@H](CO)[C@@H](O)[C@H](O)[C@H]1O [Phloridzin]
Reply: 97.6
